test system: NCI-H226 lung; assay: NCI tumour cell line growth inhibition, 48 h
List of GI50 values.
recorded endpoint: GI50

>>> df
                                   molecule    measured_on    result
0                          CN(C)c1ccc(N)cc1  NCI-H226 lung   12.4 µM
1  CC(=O)[CH-]C(=O)c1ccccc1.CC(=O)[CH-]C(=O)c1ccccc1.O=C([O-])c1ccc([O-])cc1.O=C([O-])c1ccc([O-])cc1.[Ti+4]  NCI-H226 lung   37.3 µM
2  COc1cc(C2=NN(C(C)=O)C(c3ccc(OC(C)=O)cc3OC(C)=O)O2)c(OC(C)=O)c2ccccc12 (configuration not stated)  NCI-H226 lung   1.15 µM
3        COc1cc2c(cc1C)NC(=O)/C2=C/c1cccnc1  NCI-H226 lung   10.9 µM
4  CCS(=O)(=O)c1ccc(OC)c(Nc2ncc(-c3cccc(OC)c3)o2)c1  NCI-H226 lung   4.65 µM
5        Cc1ccc(C(=NN=C(N)N)c2ccc(C)cc2)cc1  NCI-H226 lung   1.69 µM
6  Nc1ncc(-c2cnn(CCO)c2)c2scc(-c3ccc(NC(=O)Nc4cccc(F)c4)cc3)c12  NCI-H226 lung  0.162 µM

# credit: PubChem BioAssay (NCI)
